Target: T1, O12-bN
T1 chain: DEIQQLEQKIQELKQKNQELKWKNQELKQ
Assay: two-hybrid library CCNG1;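 further: natural log of median RNA to DNA barcode read ratio; higher means stronger binding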
Please provide measured interaction score for the entries that follow.
Answers are plain numbers.

Example results:
- binder: "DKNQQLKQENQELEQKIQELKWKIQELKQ [O10-bN]"
  interaction score: -1.87
- binder: "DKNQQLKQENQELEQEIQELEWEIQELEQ [O1-bN]"
  interaction score: -1.46

Batch: interaction score for all items listed.
1. DKIQQLKQEIQELEQENQELEWENQELEQ [O11-bN]
2. DEIQQLEQKIQELKQKNQELKWKNQELKQ [O12-bN]

0.971
-0.0253
